- Tested on: SF-539 CNS
- Assay Remarks: NCI-60 one-dose screen, 48 h
- Run Conditions: 10 µM unless noted
- Method: Cells are grown in 96 well plates and exposed to the test compound for 48 hours. Compounds are tested at a single concentration, which is 10^-5 M for most compounds. The reported endpoint is percent growth (GI% or GIPRCNT), where numbers from 0 - 100% represent growth inhibition, and numbers from -100% - 0 represent cell death. For example, a value of 40 represents 60% growth inhibition. A value of 0 means no net growth occurred over the course of the experiment. […]
Compounds without any hit were thinned out: in the full panel of roughly 83,000, 20% have a hit. The source made the active and inactive calls. The calls were made as follows: active = growth percent below 10; inactive = the rest.
# output must be one of Y = active, N = inactive

Input line: Query: recorded result category for COc1cc(Oc2cc(-c3cccnc3)ccc2NC(=O)Nc2ccc(F)cc2F)cc(OC)c1OC in this test
Output line: N

Input line: Hi, sorry to bother you, what did the test record for c1csc([C@@H]2C[C@@H]3Cc4ccc5ccccc5c4N2O3)c1 ?
Output line: N

Input line: Tell me the assay call for Cc1cc(NCCCNc2ccnc3cc(Cl)ccc23)nc(N2CCN(C)CC2)n1 please.
Output line: Y

Input line: In this assay, the call recorded for COc1cc(C2NC(c3ccc(Cl)cc3)C(C)/C(=N/NC(N)=S)C2C)cc(OC)c1OC (stereo not given) was what?
Output line: N

Input line: Which outcome was entered for the compound Oc1ccc(Cc2ccc(O)c(C3CC(c4ccc(Cl)cc4)=NN3)c2)cc1C1CC(c2ccc(Cl)cc2)=NN1 (stereo not given) in this test?
Output line: N

----------
- Test system: HCT-15 colon
- Assay Remarks: NCI-60 one-dose screen, 48 h
- Run Conditions: 10 µM unless noted
Compounds without any hit were thinned out: in the full panel of roughly 83,000, 20% have a hit. Activity calls are given as the source filed them. How the source made its calls: active means growth percent below 10; inactive means the rest.
I would appreciate it if you answered using one of these outcomes: active, inactive

Input line: Write down the call the test reported for this molecule. Item: CCc1[nH]nc(-c2ccc(OC)cc2)c1-c1ccccc1OCCN(CC)CC
Output line: inactive

Input line: Query: recorded result category for CC(C)C/C(=N\NC(=O)c1ccncc1)c1cc(Cl)ccc1O in this test
Output line: inactive

Input line: For Cc1cc(=O)n2n1-c1ccc(Cl)cc1NC(=O)C2 , which call appears in the assay record?
Output line: inactive

Input line: // param item: CC(C)[O-].CC(C)[O-].CN(CCN(C)Cc1cc(F)cc(F)c1[O-])Cc1cc(F)cc(F)c1[O-].[Ti+4] ; yields the recorded call
Output line: inactive

Input line: Write down the call the test reported for this molecule. Item: COc1ccc(C(=O)C(C)Br)cc1OC (stereo not drawn)
Output line: inactive

Input line: # lookup: test call for Cn1[nH]cc(/C=N/C(N)=O)c1=O
Output line: inactive

Input line: Recorded test call requested for COc1cc(/C=C/C(=O)c2c(-c3ccc(Cl)cc3)nc3sc(C)nn23)cc(OC)c1OC
Output line: inactive

Input line: Please let me know the test result on file for O=C(CCc1nnc(SCc2ccccc2)s1)c1nc2ccccc2[nH]1 .
Output line: inactive

Input line: Just curious, what result did c1coc([C@@H]2C[C@@H]3Cc4ccc5ccccc5c4N2O3)c1 get here?
Output line: inactive

Input line: Look up the recorded call for CSc1nc2c(c(=O)n1C)C(c1ccccc1)C1=C(N2)/C(=C/c2ccccc2)CCC1 (stereo not drawn) in this test.
Output line: inactive

Input line: Outcome logged for COc1cc(/C=C/c2nnc(-c3cc(-c4ccccc4)n[nH]3)o2)cc(OC)c1OC in this assay:
Output line: inactive

Input line: Please state the recorded outcome for this molecule: COC(=O)[C@]12CC[C@@H](C)[C@H](C)[C@@H]1C1=CC[C@@H]3[C@@]4(C)C[C@@H](OC(=O)c5ccco5)[C@H](O)[C@@](C)(CO)[C@@H]4[C@H](O)C[C@@]3(C)[C@]1(C)CC2
Output line: active

Input line: # lookup: test call for CC[N+](C)(CC)CCCC(C)Nc1ccnc2cc(Cl)ccc12 (stereo not drawn)
Output line: inactive

Input line: Which result was noted for this molecule in the test: c1csc([C@@H]2C[C@@H]3Cc4ccc5ccccc5c4N2O3)c1
Output line: inactive

Input line: So what was the verdict on Cn1c(=O)c2nc(SCc3ccccc3)n(C)c2n(C)c1=O in this test?
Output line: inactive

Input line: Could you check what this test reported for CN(C)c1ccc(/C=C(\C#N)c2nc3ccccc3c(=O)[nH]2)cc1 ?
Output line: inactive

Input line: Record lookup: outcome of this test for Cc1ccc(C(C)C)cc1NC(=O)Nc1ccc([N+](=O)[O-])cc1 ?
Output line: inactive

Input line: Give the logged outcome of this assay for the following molecule: CCOC(Cc1c(N)[nH]c(=S)[nH]c1=O)OCC
Output line: inactive

Input line: Please indicate how the test categorized O=C(Nc1ccc(Nc2ccncc2)cc1)c1ccc(Nc2ccnc3ccc([N+](=O)[O-])cc23)cc1[N+](=O)[O-] .
Output line: inactive

Input line: Assay outcome for NCCCc1nnc(CCC(=O)c2nc3ccccc3[nH]2)o1 : what was it?
Output line: inactive

Input line: Kindly provide the recorded test outcome for the following molecule: O=C(/C=C/c1ccccc1Cl)c1ccc(O)cc1
Output line: inactive

Input line: Hi team, can someone confirm the assay call for COc1c(C)c2c(c(O)c1C/C=C(\C)CCC(=O)OCCN1CCOCC1)C(=O)OC2 ?
Output line: inactive

Input line: In this assay, the call recorded for Cn1cc(-c2csc(-c3cn(C)c4ncccc34)n2)c2cc(Br)cnc21 was what?
Output line: inactive

Input line: Hi team, can someone confirm the assay call for NNC(=O)C1CC2c3ccccc3C1c1ccccc12 (stereo not drawn) ?
Output line: inactive

Input line: Call for entry COc1cc(/C=C/C(=O)c2ccc(F)cc2)ccc1OCCCCCOc1cc2c(cc1OC)C(=O)N1CCCC1C=N2 (stereo not drawn) :
Output line: active

Input line: Identify the outcome logged in this assay for the molecule shown: CCCOc1ccc2c(c1)CC[C@@H]1[C@@H]2CC[C@@]2(C)[C@H]1CC[C@]2(C)O
Output line: inactive

Input line: Which result was noted for this molecule in the test: O=C1C(=O)c2ccc(Br)cc2-c2cc(Br)ccc21
Output line: inactive

Input line: Outcome logged for O=C1C[C@@H]2/C(=C(O)\C=C\c3ccccc3)C(=O)C=C[C@@H]2O1 in this assay:
Output line: active

Input line: Identify the outcome logged in this assay for the molecule shown: Cc1cc(C)c(OC(=O)CSc2nc3ccccc3c(=O)n2CCc2ccccc2)cc1C
Output line: inactive

Input line: Hi, sorry to bother you, what did the test record for Cc1cc(N2CCOCC2)nc(N2CCOCC2)n1 ?
Output line: inactive

Input line: // outcome(item) with item = COc1ccc(C2=NN(C(C)=O)C(c3cc(OC)c(OC)c(OC)c3)C2)cc1 (stereo not drawn)
Output line: inactive

Input line: Record lookup: outcome of this test for O=C1/C(=C/c2ccc3cccc(Cl)c3n2)SC(=S)N1CCc1ccc(O)cc1 ?
Output line: inactive

Input line: # fetch the recorded call for Nc1nc2ncc(CCNc3ccc(C(=O)NC(CCC(=O)O)C(=O)O)cc3)nc2c(=O)[nH]1 (stereo not drawn) here
Output line: inactive

Input line: Returns: the outcome recorded for Cn1cnc([N+](=O)[O-])c1S(=O)(=O)Oc1ccc(Cl)cc1 in this assay.
Output line: inactive

Input line: How did this test come out for Cc1cc(C(C)(C)C)cc(C)c1CC1=NCCN1 ?
Output line: inactive

Input line: Give the logged outcome of this assay for the following molecule: Cn1c(N)c(N=O)c(=O)[nH]c1=O
Output line: inactive

Input line: Which outcome was assigned to Cc1cc(C(=O)O)c(C)cc1C(=O)O in this test?
Output line: inactive

Input line: // param item: CN(C)c1nc(N)nc(Cn2c(-c3nonc3N)nc3ccccc32)n1 ; yields the recorded call
Output line: inactive

Input line: Which outcome did this test record for the molecule CCC(C)CC(C)C(=O)c1c(O)ccn(O)c1=O (stereo not drawn) ?
Output line: inactive

Input line: Please share the test call associated with C=C(C[C@](O)(C(=O)/C=C/c1ccc(Cl)cc1)C(=O)OC)c1ccccc1 .
Output line: active

Input line: Would you mind telling me which call this test gave CCOC(=O)C(C(C)=O)c1nc2sc3cc(Cl)ccc3n2c(=N)c1C#N (stereo not drawn) ?
Output line: inactive

Input line: Just curious, what result did COc1cc(/C=C/C(=O)Nc2cccnc2Nc2cc(OC)c(OC)c(OC)c2)cc(OC)c1OC get here?
Output line: inactive

Input line: Lab log entry: COc1ccc2c(c1)nc(N)c1c3ccccc3cn21 — outcome as called in the assay?
Output line: inactive

----------
For each record, write down the corresponding growth.
- System: EKVX NSCLC
- Assay Remarks: NCI-60 one-dose screen, 48 h (100 = growth as untreated, 0 = no growth, -100 = all killed)
- Run Conditions: 10 µM unless noted
- Protocol: Growth inhibition of the EKVX human Non-Small Cell Lung tumor cell line is measured as a screen for anti-cancer activity. Cells are grown in 96 well plates and exposed to the test compound for 48 hours. Compounds are tested at a single concentration, which is 10^-5 M for most compounds. The reported endpoint is percent growth (GI% or GIPRCNT), where numbers from 0 - 100% represent growth inhibition, and numbers from -100% - 0 represent cell death. […]
This is part of a sample that, as a whole, favours compounds with a hit. Of some 83,000 tested, about 20% had one in any assay.
Unit % implied. Number only.

Input line: Form field: growth recorded for O=c1[nH]c(Cl)nc2c1cnn2-c1ccccc1 with EKVX NSCLC (enter value)
Output line: 93.7

Input line: Give growth (EKVX NSCLC) of the following compound: COc1ccc(OC)c(/C=C/c2nc(=S)n(-c3ccc(Cl)cc3)[nH]2)c1
Output line: 75.2

Input line: Form: Entry = Cn1[nH]cc(/C=N/C(N)=O)c1=O | System = EKVX NSCLC | growth = ____
Output line: 123

Input line: Requested read-out growth, target or system EKVX NSCLC, entry Cc1ccc(C(O)C2=CC(=O)c3ccccc3C2=O)cc1 (stereo unspecified)
Output line: 91.2

Input line: // lookup growth | system=EKVX NSCLC | key= O=C(CSc1nnc(Nc2ccccc2)s1)NCCc1ccc(F)cc1
Output line: 91.7

Input line: EKVX NSCLC / growth / COc1cc(C2CC(c3ccc(C)cc3)=NN2C(C)=O)ccc1Oc1ccnc2cc(Cl)ccc12 (stereo unspecified) : value?
Output line: 63.3

Input line: Param readout = growth; param system = EKVX NSCLC; param query = O=C(Nc1cccc2ccccc12)c1cc2c(cc1Br)OCO2 ; response: value
Output line: 92.9

Input line: What value of growth on EKVX NSCLC does CCCCN(CCCC)CCCOC(=O)c1ccc(N)cc1 have?
Output line: 94.3

Input line: Any idea what growth came out for CCCCCCCCCCC[C@@H](C[C@H]1OC(=O)[C@H]1CCCCCC)OC(=O)[C@@H](CC(C)C)NC=O on EKVX NSCLC?
Output line: 95.6

Input line: Record O=C(CCc1nnc(SCc2ccccc2)s1)c1nc2ccccc2[nH]1 : what is its growth with EKVX NSCLC?
Output line: 93.8

Input line: What value of growth on EKVX NSCLC does COc1ccc2c(c1)/C(=C\c1c[nH]c3ccc(F)cc13)C(=O)N2 have?
Output line: 64.8
